# system tested: T1, His-tagged P3028 (human, also: His tag, length and end not given here)
# T1 construct: in solution at 0.5 ug/mL, detected with mouse anti-His antibody and rabbit anti-mouse peroxidase (rampo); also called PGE73; His-tag-P3028; not shown: His tag
# T1 peptide: VFDEFKPLVEEPQNLIK
# experiment summary: PEPSCAN ELISA, peptide on chip;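 further: binding detected by peroxidase ELISA with ABTS, OD405 colour imaged by CCD camera before and after staining, raw OD405 reported as rampo units, air-bubble wells scored 0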
Ends that are not written are not given here.
Decision: RAMPO Score >= 400 rampo units yields 1, all other cases yield 0.

binder	assigned label
KKTDTFFVKLSLFTER [SEQ ID NO 296]	1
KKLDTFFVKLSLITER [SEQ ID NO 365]	1
KKLDTFFVKLSLFSER [SEQ ID NO 384]	0

Determine whether this binder has RAMPO Score no lower than 400 rampo units: LKLDTFFVKLSLFTER [SEQ ID NO 274] 1

Determine whether this binder has RAMPO Score no lower than 400 rampo units: KKRDTFFVKLSLFTER [SEQ ID NO 294] 0

Determine whether this binder has RAMPO Score no lower than 400 rampo units: KKLDTFFVKLSLFTET [SEQ ID NO 392] 0

Determine whether this binder has RAMPO Score no lower than 400 rampo units: KKLDTFFVKLSMFTER [SEQ ID NO 353] 1

Determine whether this binder has RAMPO Score no lower than 400 rampo units: KKVDTFFVKLSLFTER [SEQ ID NO 297] 0
